Target: human uPAR (uPAR-Fc) (Homo sapiens, UniProt Q03405)
Construct: comprising amino acids Leu23-Arg303 according to UniProt entry Q03405.1; purchased R&D Systems 10378-UK-100
Sequence (Q03405 23-303): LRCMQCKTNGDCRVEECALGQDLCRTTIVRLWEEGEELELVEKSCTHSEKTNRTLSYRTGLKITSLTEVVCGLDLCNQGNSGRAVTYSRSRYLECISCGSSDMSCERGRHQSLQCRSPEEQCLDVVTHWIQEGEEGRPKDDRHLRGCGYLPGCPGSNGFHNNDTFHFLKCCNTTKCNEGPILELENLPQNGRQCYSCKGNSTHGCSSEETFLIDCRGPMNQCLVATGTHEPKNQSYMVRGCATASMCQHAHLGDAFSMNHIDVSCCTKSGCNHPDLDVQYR
Assay: Surface plasmon resonance (SPR) assay, single cycle kinetics
Type: binding
Conditions: pKD category for uPAR SPR activity assay; uPAR-Fc on Protein A-Chip, 25°C; read-out: pKD CAT (converted)
Where a SMILES comes first, the peptide text is derived from it. Bridges are numbered along the chain shown (N, C = ends). [ ]: non-standard residue; d: D form. The star is where a group is joined. X3 = NC(=O)[C@H](CCCCNC(=O)CN1CCN(CC(=O)O)CCN(CC(=O)O)CCN(CC(=O)O)CC1)NC(=O)CCC(=O)NCCCOCCOCCOCCCN*; DOTA = O=C(O)CN1CCN(CC(=O)O)CCN(CC(=O)*)CCN(CC(=O)O)CC1; Phe(4-SO3H) = N[C@@H](Cc1ccc(S(=O)(=O)O)cc1)C(=O)O; Pro(cis-4-F) = O=C(O)[C@@H]1C[C@H](F)CN1; Hyp = O=C(O)[C@@H]1C[C@@H](O)CN1; Cit = NC(=O)NCCC[C@H](N)C(=O)O; Butoxycarbonyl = CCCCOC(=O)*; Nva = CCC[C@H](N)C(=O)O; Hexanoyl = CCCCCC(=O)*; Pentanoyl = CCCCC(=O)*
MEASURED_ENDPOINT: Kd

Recorded results for 4 compounds are shown here.
CCCCC(=O)N[C@H]1CSSC[C@@H](C(N)=O)NC(=O)[C@H](CCC)NC(=O)[C@H]([C@@H](C)CC)NC(=O)[C@@H]2C[C@@H](O)CN2C(=O)[C@@H]2CCCN2C(=O)[C@H](Cc2ccccc2)NC(=O)[C@H](Cc2ccc(S(=O)(=O)O)cc2)NC(=O)[C@H](CCCCNC(=O)CN2CCN(CC(=O)O)CCN(CC(=O)O)CCN(CC(=O)O)CC2)NC(=O)[C@H](CCCNC(N)=O)NC1=O [UPAR-209] (Pentanoyl-C[Cit]K(DOTA)[Phe(4-SO3H)]FP[Hyp]I[Nva]C-NH2; disulfide 1-10) ... 1.58 to 10 nM
CCCCC(=O)N[C@H]1CSSC[C@@H](C(N)=O)NC(=O)[C@H](CCC)NC(=O)[C@H]([C@@H](C)CC)NC(=O)[C@@H]2C[C@@H](O)CN2C(=O)[C@@H]2CCCN2C(=O)[C@H](Cc2ccccc2)NC(=O)[C@H](Cc2ccc(O)cc2)NC(=O)[C@H](CCCCNC(=O)CN2CCN(CC(=O)O)CCN(CC(=O)O)CCN(CC(=O)O)CC2)NC(=O)[C@H](CC(N)=O)NC1=O [UPAR-283] (Pentanoyl-CNK(DOTA)YFP[Hyp]I[Nva]C-NH2; disulfide 1-10) ... < 1.58 nM
CCCCOC(=O)N[C@H]1CSSC[C@@H](C(=O)N[C@@H](CC(=O)O)C(N)=O)NC(=O)[C@H](CCC)NC(=O)[C@H]([C@@H](C)CC)NC(=O)[C@@H]2C[C@@H](O)CN2C(=O)[C@@H]2C[C@H](F)CN2C(=O)[C@H](Cc2ccccc2)NC(=O)[C@H](Cc2ccc(O)cc2)NC(=O)[C@H](CCCCNC(=O)CN2CCN(CC(=O)O)CCN(CC(=O)O)CCN(CC(=O)O)CC2)NC(=O)[C@H]([C@@H](C)O)NC1=O [UPAR-141] (Butoxycarbonyl-CTK(DOTA)YF[Pro(cis-4-F)][Hyp]I[Nva]CD-NH2; disulfide 1-10) ... 10 to 100 nM
CCCCC(=O)N[C@H]1CSSC[C@@H](C(N)=O)NC(=O)[C@H](CCC)NC(=O)[C@H]([C@@H](C)CC)NC(=O)[C@@H]2C[C@@H](O)CN2C(=O)[C@@H]2CCCN2C(=O)[C@H](CC(C)C)NC(=O)[C@H](Cc2ccc(O)cc2)NC(=O)[C@H](CCC(N)=O)NC(=O)[C@H](CCCNC(=N)N)NC1=O [UPAR-197] (Pentanoyl-CRQYLP[Hyp]I[Nva]C-NH2; disulfide 1-10) ... 1.58 to 10 nM

Ask: May I ask what Kd has been recorded for CC[C@H](C)[C@@H]1NC(=O)[C@@H](C)NC(=O)[C@@H]2CCCN2C(=O)[C@H](Cc2ccccc2)NC(=O)[C@H](Cc2ccc(O)cc2)NC(=O)[C@H](CCCCNC(=O)CN2CCN(CC(=O)O)CCN(CC(=O)O)CCN(CC(=O)O)CC2)NC(=O)[C@H](CCCNC(=N)N)NC(=O)[C@@H](NC(=O)[C@H](CC(C)C)NC(C)=O)CSSC[C@@H](C(N)=O)NC(=O)[C@H](CC(C)C)NC1=O [UPAR-162] (Ac-LCRK(DOTA)YFP[dA]ILC-NH2; disulfide 2-11) ?
Reply: < 1.58 nM

Ask: Any idea what Kd was measured for CCCCCC(=O)N[C@@H](CC(=O)O)C(=O)N[C@@H](CC(C)C)C(=O)N[C@H]1CSSC[C@@H](C(=O)NCCCOCCOCCOCCCNC(=O)CCC(=O)N[C@@H](CCCCNC(=O)CN2CCN(CC(=O)O)CCN(CC(=O)O)CCN(CC(=O)O)CC2)C(N)=O)NC(=O)[C@H](CC(C)C)NC(=O)[C@H]([C@@H](C)CC)NC(=O)[C@H](C)NC(=O)[C@@H]2CCCN2C(=O)[C@H](Cc2ccccc2)NC(=O)[C@H](Cc2ccc(O)cc2)NC(=O)[C@H](CCSC)NC(=O)[C@H](CCCNC(=N)N)NC1=O [UPAR-150] (Hexanoyl-DLCRMYFPAILC-X3; disulfide 3-12) ?
Reply: 1.58 to 10 nM
